- System: MB453 cells
- assay-text: alamarBlue MB453 cell assay (antiproliferative/cytotoxicity)
- Assay type: cell-based
- conditions: Homo sapiens; MDA MB 453 breast cancer cell line
- Text: The H460, MB453, U87, MCF7 and BT474 alamarBlue cell assays provide EC50 values indicative of the antiproliferative or cytotoxic effects of the compounds to respectively the H460 (human non small cell line cancer), MB-453 (breast cancer cell line), U87 (glioblastoma cell line), MCF7 (breast cancer cell line) and BT474 (breast cancer cell line). […] 3. […] Measure fluorescence by exciting at 530-560 nm and measuring emission at 590 nm 5. […]
Assign labels as follows, please: t for EC50 below 200 nM; f for EC50 equal to or exceeding 200 nM.

I wonder whether `CCc1ncnc(-c2cccc(C#N)c2)c1C#Cc1cnc(C)c(NS(=O)(=O)c2ccc(F)cc2F)c1` has EC50 below 200 nM. Can you tell?
f

====

- tested-target: PI3Kalpha (Homo sapiens, UniProt P42336)
- Construct: His (N)
- Sequence (P27986 whole entry): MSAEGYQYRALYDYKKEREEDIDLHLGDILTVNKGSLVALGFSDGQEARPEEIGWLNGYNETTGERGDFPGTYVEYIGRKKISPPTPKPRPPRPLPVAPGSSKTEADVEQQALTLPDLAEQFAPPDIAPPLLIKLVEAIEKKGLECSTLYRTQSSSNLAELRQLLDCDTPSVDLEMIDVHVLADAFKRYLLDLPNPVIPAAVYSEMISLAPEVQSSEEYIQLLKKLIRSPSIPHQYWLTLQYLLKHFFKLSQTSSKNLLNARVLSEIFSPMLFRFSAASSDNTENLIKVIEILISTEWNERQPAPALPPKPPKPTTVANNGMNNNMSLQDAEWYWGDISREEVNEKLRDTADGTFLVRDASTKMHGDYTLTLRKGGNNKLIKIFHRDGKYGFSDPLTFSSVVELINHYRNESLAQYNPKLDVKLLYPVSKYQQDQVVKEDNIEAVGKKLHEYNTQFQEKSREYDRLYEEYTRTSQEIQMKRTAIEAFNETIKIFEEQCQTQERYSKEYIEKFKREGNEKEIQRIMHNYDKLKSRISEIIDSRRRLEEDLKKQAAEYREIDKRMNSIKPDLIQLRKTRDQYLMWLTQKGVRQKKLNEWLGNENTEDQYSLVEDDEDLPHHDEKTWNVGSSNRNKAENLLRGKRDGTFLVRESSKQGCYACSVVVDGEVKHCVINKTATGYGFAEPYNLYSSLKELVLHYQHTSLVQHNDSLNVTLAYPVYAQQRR
- Sequence (P42336 whole entry): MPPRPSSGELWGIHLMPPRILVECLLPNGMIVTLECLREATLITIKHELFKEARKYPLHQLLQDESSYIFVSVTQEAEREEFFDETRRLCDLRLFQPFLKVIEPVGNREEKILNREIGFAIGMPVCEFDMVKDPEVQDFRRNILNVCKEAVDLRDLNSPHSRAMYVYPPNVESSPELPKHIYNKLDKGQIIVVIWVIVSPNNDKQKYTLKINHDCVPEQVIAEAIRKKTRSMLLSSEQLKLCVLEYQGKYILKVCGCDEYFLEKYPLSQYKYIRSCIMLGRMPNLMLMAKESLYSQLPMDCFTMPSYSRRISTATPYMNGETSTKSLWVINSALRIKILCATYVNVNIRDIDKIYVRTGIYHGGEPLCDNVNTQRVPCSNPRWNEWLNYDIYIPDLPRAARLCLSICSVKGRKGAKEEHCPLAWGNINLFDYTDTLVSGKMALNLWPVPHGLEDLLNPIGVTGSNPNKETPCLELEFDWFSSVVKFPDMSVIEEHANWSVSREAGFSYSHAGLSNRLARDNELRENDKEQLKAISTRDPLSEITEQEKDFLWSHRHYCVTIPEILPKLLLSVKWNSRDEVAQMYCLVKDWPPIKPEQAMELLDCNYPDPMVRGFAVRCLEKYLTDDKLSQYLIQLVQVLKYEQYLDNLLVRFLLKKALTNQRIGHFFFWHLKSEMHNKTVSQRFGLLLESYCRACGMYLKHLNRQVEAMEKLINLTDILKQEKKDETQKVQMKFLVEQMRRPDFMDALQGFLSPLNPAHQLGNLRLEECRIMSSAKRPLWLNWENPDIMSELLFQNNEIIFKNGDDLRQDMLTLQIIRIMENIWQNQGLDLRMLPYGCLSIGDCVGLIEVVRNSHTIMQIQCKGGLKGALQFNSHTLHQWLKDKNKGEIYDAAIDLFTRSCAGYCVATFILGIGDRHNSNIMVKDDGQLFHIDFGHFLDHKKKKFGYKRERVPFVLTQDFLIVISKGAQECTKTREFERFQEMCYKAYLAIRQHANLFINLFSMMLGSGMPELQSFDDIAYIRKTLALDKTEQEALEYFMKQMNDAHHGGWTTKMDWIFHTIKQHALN
- assay-text: Inhibition of PI3Kalpha-induced PIP-2 phosphorylation (filter-binding assay, 33P-ATP)
- conditions: PI3 Kinase alpha (p85alpha/His-p110alpha), 1 μM ATP; read-out: IC50 PI3Kα
Reported pIC50 is given for each of the following compounds.
Please report pIC50 as the negative decimal logarithm of the molar concentration, giving only the number.

For `CCc1ncnc(-c2ccnc(C)c2)c1C#Cc1cnc(C)c(NS(=O)(=O)c2ccc(CNC(C)=O)cc2)c1` , what is its reported pIC50?
9.00

For `CCc1ncnc(-c2cccc(C#N)c2)c1C#Cc1cnc(C)c(NS(=O)(=O)c2ccc(F)cc2F)c1` , what is its reported pIC50?
9.04

For `CCc1ncnc(-c2ccnc(C)c2)c1C#Cc1cnc(C)c(NS(=O)(=O)c2ccc(Cl)cc2)c1` , what is its reported pIC50?
9.00

For `COc1ncc(C#Cc2c(C)ncnc2-c2ccc(C(=O)N3CCN(C)CC3)c(F)c2)cc1NS(=O)(=O)c1ccc(F)cc1F` , what is its reported pIC50?
9.17

For `CCc1nc(N)nc(-c2ccc(C)nc2)c1C#Cc1cnc(C)c(NS(C)(=O)=O)c1` , what is its reported pIC50?
9.00

====

- System: BT474 cells
- assay-text: alamarBlue BT474 cell assay (antiproliferative/cytotoxicity)
- Assay type: cell-based
- conditions: BT-474 human breast cancer cell line, 5-6 days incubation
experimental-readout: pEC50
Please report pEC50 as the negative decimal logarithm of the molar concentration, giving only the number.

>  <molecule>
CCc1ncnc(-c2ccnc(OC)c2)c1C#Cc1cnc(C)c(NS(C)(=O)=O)c1 [Example 76]

>  <pEC50>
6.45

$$$$
>  <molecule>
CCc1ncnc(-c2cccc(CN(C)C)c2)c1C#Cc1cnc(C)c(NS(C)(=O)=O)c1 [Example 2]

>  <pEC50>
6.23

$$$$
>  <molecule>
CCc1ncnc(-c2ccnc(C)c2)c1C#Cc1cnc(C)c(NS(=O)(=O)c2ccc(OC)cc2)c1 [Example 87]

>  <pEC50>
6.42

$$$$
>  <molecule>
CCc1nc(N)nc(-c2ccnc(C)c2)c1C#Cc1cnc(C)c(NS(C)(=O)=O)c1 [Example 15]

>  <pEC50>
6.97

$$$$
>  <molecule>
CCc1ncnc(-c2cccc(OC(C)C)c2)c1C#Cc1cnc(C)c(NS(C)(=O)=O)c1 [Example 64]

>  <pEC50>
6.21

$$$$

// next item, pEC50 requested
Write down the reported pEC50 of CCc1ncnc(-c2ccnc(C)c2)c1C#Cc1cnc(C)c(NS(=O)(=O)c2ccc(C(C)(C)C)cc2)c1 [Example 99] , test system: BT474 cells.
5.30

Reference source: patent US8466162B2
